Recorded EC50, one value per entry.
Tested on: KB
Assay: Cytotoxicity against human KB cells after 3 days by sulforhodamine B assay
Type: functional
Settings: 72 h, read-out: ED50 (the source's name)

- molecule: "CO[C@@H]1C[C@H]2N3CC[C@@]2(c2cc4c(cc2C3)OCO4)[C@H]2O[C@@H]12"
  output unit: "µg/mL"
  readout relation: "="
  EC50: 0.6
- molecule: "CO[C@H]1C=C[C@@]23c4cc5c(cc4CN(C[C@@H]2O)[C@H]3C1)OCO5"
  output unit: "µg/mL"
  readout relation: "="
  EC50: 1
- molecule: "O[C@@H]1CC[C@H]2N3CC[C@@]2(c2cc4c(cc2C3)OCO4)[C@@H]1O"
  output unit: "µg/mL"
  readout relation: ">"
  EC50: 20
- molecule: "O[C@H]1[C@H]2c3cc4c(cc3CN3CCC(=C[C@@H]1O)[C@H]23)OCO4"
  output unit: "µg/mL"
  readout relation: "="
  EC50: 0.3
- molecule: "COC1C=C[C@@]23CCN(Cc4cc5c(cc42)OCO5)[C@@H]3C1 (stereo not given in full)"
  output unit: "µg/mL"
  readout relation: ">"
  EC50: 20

Cited source for all entries: ChEMBL document CHEMBL1148188
